meta.source: PubChem BioAssay

# Method: growth suppression of beta-catenin knockout HCT116, pilot screen, human colon tumor cells (AID 823);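 further: 0% = wells killed by 20 µM Hyamine and 100% = untreated DMSO cell wells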
# Particulars: CellTiter-Glo, 60 h, at 10 µM, active compounds read low
Results filed as inconclusive are left out.
Property name: viability (%)
Write down the numeric answer in % and omit the unit.

[[record]]
molecule = "COc1cccc(-c2cc(C(=O)N3CCN(c4ncccn4)CC3)c3ccccc3n2)c1"
property_name = "viability"
readout_unit = "%"
endpoint_value = 62

[[record]]
molecule = "Cc1csc2nc(CNS(=O)(=O)N(C)C)cn12"
property_name = "viability"
readout_unit = "%"
endpoint_value = 95.2

[[record]]
molecule = "CCSCCOC(=O)C1=C(C)NC(=O)NC1c1cc(OC)ccc1OC (configuration not stated)"
property_name = "viability"
readout_unit = "%"
endpoint_value = 86.9

[[record]]
molecule = "CCc1cccc(NC(=O)CS(=O)Cc2nc(-c3ccc(C)cc3)oc2C)c1 (configuration not stated)"
property_name = "viability"
readout_unit = "%"
endpoint_value = 96.1

[[record]]
molecule = "O=C(c1ccc(CNc2c(N3CCOCC3)c(=O)c2=O)cc1)N1CC=C(c2ccccc2)CC1"
property_name = "viability"
readout_unit = "%"
endpoint_value = 95.3


Record OCCn1c(SCCOc2ccccc2F)nc2ccccc21 , field viability: 91.5

Record CCOC(=O)CNC(=O)CSc1nnc(Cn2c(=O)sc3ccccc32)n1C , field viability: 108

Record CCOc1ccccc1CNS(=O)(=O)c1ccc2c(c1)oc(=O)n2C , field viability: 102

Record Cc1cccc(-n2ncc3c(N(C)C4CCCCC4)ncnc32)c1 , field viability: 84.7

Record CC(=O)COC(=O)c1cccc(N2C(=O)C3C4C=CC(C4)C3C2=O)c1 (configuration not stated) , field viability: 105

Record COc1ccc(-c2nc(C#N)c(NC(C)C)o2)cc1 , field viability: 90.4

Record Cc1ccc(-n2ncc3c(NCCCn4ccnc4)ncnc32)c(C)c1 , field viability: 88.8

Record Cc1sc2nc(NCCO)[nH]c(=O)c2c1C , field viability: 107

Record CC1CCN(C(=O)C(Cc2ccccc2)NS(=O)(=O)c2ccc3c(c2)oc(=O)n3C)CC1 (configuration not stated) , field viability: 104

Record CCOC(=O)Cn1c(=O)oc2cc(S(=O)(=O)Nc3cccc(C)c3)ccc21 , field viability: 65.5

Record COc1ccc(C2=CC(c3ccc(Cl)cc3)n3cnnc3N2)cc1OC (configuration not stated) , field viability: 97.3

Record Cc1ccc(/C=N/c2sc3c(c2C#N)CCC3)s1 , field viability: 96.1

Record O=C(Nc1c(C(=O)N2CCCCC2)cnn1-c1ccccc1)c1ccco1 , field viability: 95.2

Record Cc1cccc(-n2c(O)c(C=Nc3ccc4c(c3)OCO4)c3ccccc3c2=O)n1 , field viability: 89.3

Record Cc1ccccc1Cn1c(CN2CCN(c3ccc(F)cc3)CC2)nc2c1c(=O)n(C)c(=O)n2C , field viability: 94.4

Record COc1ccc(C(=O)C(OC(=O)CNC(=O)c2ccco2)c2ccccc2)cc1 (configuration not stated) , field viability: 100

Record COc1ccccc1C(=O)N1CCN(c2cccc(Cl)c2)CC1 , field viability: 15.4
